experimental_system: S1-Fc (SARS-CoV-2 S1 protein, Fc fusion) (SARS-CoV-2, UniProt P0DTC2 16-685)
protocol_details: SPR (Biacore T200), S1 captured on anti-human Fc chip, scFv injected
experimental_endpoint: kon
Respond with the figure and its unit, in that order.

Some binders with known kon results, for comparison:
Per the record, 2020EP54-H01 scFv (scFv, also called 2020EP054-H01) scFv: QVQLVESGGGVVQPGRSLRLSCAASGFTFSSYGMHWVRQAPGKGLEWVAVISYDGSNKYYADSVKGRFTISRDNSKNTLYLQMNSLRAEDTAVYYCAKGRGWYLDYWGQGTLVTVSSGGGGSGGGGSGGGGSNFMLTQPPSVSVSPGQTASITCSGDKLGDKYACWYQQKPGQSPVLVMYEDYKRPSGIPARFSGSNSGNTATLTISRVEGGDEGDYYCQVWDSRGPEVIFGGGTKLTVL has kon of 99000 M⁻¹ s⁻¹

The binder identified as 2020EP53-D06 scFv (scFv) scFv: QVQLVQSGGGVVQPGRSLRLSCAASGFTFSSYAMHWVRQAPGKGLEWVAVISYDGSNKYYADSVKGRFTISRDNSKNTLYLQMNSLRAEDTAVYYCARDGEDGYNYISPFDYWGQGTLVTVSSGGGGSGGGGSGGGGSSYELTQPPSVSVAPGETARITCRGNDIGSKSVHWYQQKPGQAPVLVLYYDSDRPSGIPERFSGSNSGNTATLTISSVEAGDEADYYCQVWDIDVVFGGGTKLTVL registered its kon at 260000 M⁻¹ s⁻¹

Next up:
Short answer for 2020EP75-E02 scFv (scFv) scFv: QMQLVQSGAEVKKPGSSVKVSCKASGGTFSSYAISWVRQAPGQGLEWMGGIIPIFGTANYAQKFQGRVTITADKSTSTAYMELSSLRSEDTAVYYCARPRDYRAQYYFDYWGQGTLVTVSSGGGGSGGGGSGGGGSDIVMTQSPSSLSASVGDRVTITCRAGQDIDTSVNWYQLKPGKAPRLLIYASSSLQTGVPSRFSGGGSGAEFTLTISSLQPEDFATYFCQQTFSTSVTFGGGTKVEIK : kon was 390000 M⁻¹ s⁻¹
